Just for reference, patent US20250152746A1 is where these values come from.

system: PCSK9 gene; assay: PCSK9 gRNA/SpCas9 editing in primary human hepatocytes (Tables 2, 4); format: cell-based; conditions: 500 ng/RNA/mL; SpCas9 mRNA MS002 1:1 by weight
In the oligonucleotide strings, read from the 5' end, every base follows the letter of its sugar. An asterisk marks phosphorothioate; unmarked linkages are phosphodiester. Other units and linkages are bracketed, terminal groups are in braces. A string of capitals states the bases alone. m = 2'-O-methyl; r = 2'-OH (RNA)
Each record here notes measured Human Primary Hepatocyte Editing % 500.

MOLECULE	UNITS TEXT	Human Primary Hepatocyte Editing % 500
GA183: PCSK9 gRNA; protospacer CTACGTGGTGGTGCTGAAGG (SEQ ID NO: 177) (nucleic acid) guide: mC*mU*mA*rCrGrUrGrGrUrGrGrUrGrCrUrGrArArGrGrGrUrUrUrUrArGrArGrCrUrArGrArArArUrArGrCrArArGrUrUrArArArArUrArArGrGrCrUrArGrUrCrCrGrUrUrArUrCrArArCrUrUrGrArArArArArGrUrGrGrCrArCrCrGrArGrUrCrGrGrUrGrCrU*mU*mU*mU	%	9.89
GA222: PCSK9 gRNA; protospacer TGGCAGGGGTGGTCAGCGGC (SEQ ID NO: 216) (nucleic acid, sugars from the 5' end m3 r94 m3, linkages s3 o93 s3 (s phosphorothioate, o phosphodiester), T or U not given here) guide: UGGCAGGGGUGGUCAGCGGCGUUUUAGAGCUAGAAAUAGCAAGUUAAAAUAAGGCUAGUCCGUUAUCAACUUGAAAAAGUGGCACCGAGUCGGUGCUUUU	%	0.66
GA219: PCSK9 gRNA; protospacer GGCAGGGGTGGTCAGCGGCC (SEQ ID NO: 213) (nucleic acid, sugars from the 5' end m3 r94 m3, linkages s3 o93 s3 (s phosphorothioate, o phosphodiester), T or U not given here) guide: GGCAGGGGUGGUCAGCGGCCGUUUUAGAGCUAGAAAUAGCAAGUUAAAAUAAGGCUAGUCCGUUAUCAACUUGAAAAAGUGGCACCGAGUCGGUGCUUUU	%	4.57
